Biological target: Muscarinic acetylcholine receptor M5 (Homo sapiens) (UniProt P08912)
Sequence (P08912 whole entry): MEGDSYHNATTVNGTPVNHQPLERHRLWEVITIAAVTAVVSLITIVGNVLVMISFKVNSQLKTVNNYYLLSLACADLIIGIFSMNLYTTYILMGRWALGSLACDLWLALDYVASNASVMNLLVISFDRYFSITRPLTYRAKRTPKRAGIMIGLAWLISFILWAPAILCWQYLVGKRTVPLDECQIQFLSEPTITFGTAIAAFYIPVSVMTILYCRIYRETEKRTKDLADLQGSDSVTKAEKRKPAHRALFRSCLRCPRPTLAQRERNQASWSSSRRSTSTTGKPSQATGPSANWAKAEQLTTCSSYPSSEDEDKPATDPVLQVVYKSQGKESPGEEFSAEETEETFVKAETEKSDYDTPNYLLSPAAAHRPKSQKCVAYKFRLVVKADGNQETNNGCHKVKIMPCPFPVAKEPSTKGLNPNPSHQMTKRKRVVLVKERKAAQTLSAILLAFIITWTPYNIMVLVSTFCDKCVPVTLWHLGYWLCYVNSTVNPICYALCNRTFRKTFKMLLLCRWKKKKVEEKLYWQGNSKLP
Test: Activation of human muscarinic M5 receptor expressed in CHO cells coexpressing Gq protein assessed as potentiation of acetylcholine-induced intracellular Ca2+ mobilization at 30 uM relative to acetylcholine
Type: functional, cell-based
Each entry falls into one class according to its %max; the ranges are label 0 = under 30%, label 1 = from 30% up to 50%, label 2 = 50% and over

See these solved cases before continuing.
- Molecule: "Cc1ccc2c(c1)C(=O)C(=O)N2Cc1ccc(OC(F)(F)F)cc1"
  Class name: "label 0"
- Molecule: "O=C1C(=O)N(Cc2ccccc2F)c2ccc(Cl)cc21"
  Class name: "label 1"
- Molecule: "O=C1C(=O)N(Cc2ccc(F)cc2F)c2ccc(OC(F)(F)F)cc21"
  Class name: "label 2"
- Molecule: "O=C1C(=O)N(Cc2c(F)cccc2F)c2c(Cl)ccc(Cl)c21"
  Class name: "label 0"
- Molecule: "O=C1C(=O)N(Cc2ccc(Br)cc2F)c2ccc(OC(F)(F)F)cc21"
  Class name: "label 1"
- Molecule: "O=C1C(=O)N(Cc2ccc(Br)cc2)c2ccc(OC(F)(F)F)cc21"
  Class name: "label 1"
- Molecule: "Cc1ccccc1CN1C(=O)C(=O)c2cc(Cl)ccc21"
  Class name: "label 1"
- Molecule: "O=C1C(=O)N(Cc2ccc(C(F)(F)F)cc2)c2c(F)cccc21"
  Class name: "label 2"
- Molecule: "O=C1C(=O)N(Cc2c(F)cccc2F)c2c(Cl)cccc21"
  Class name: "label 0"
- Molecule: "O=C1C(=O)N(Cc2ccccc2Cl)c2ccc(OC(F)(F)F)cc21"
  Class name: "label 2"

Exercise: GET /class?item= O=C1C(=O)N(Cc2ccc(OC(F)(F)F)cc2)c2ccccc21
Solution: label 2

Exercise: Entry COc1cccc(CN2C(=O)C(=O)c3cc(F)ccc32)c1 please
Solution: label 1

Exercise: Entry Cc1cccc2c1N(Cc1c(F)cccc1F)C(=O)C2=O please
Solution: label 0

Exercise: Entry O=C1C(=O)N(Cc2ccc(C(F)(F)F)cc2)c2ccc(Cl)cc21 please
Solution: label 2

Exercise: Entry Cc1ccc2c(c1)C(=O)C(=O)N2Cc1ccc(C(F)(F)F)cc1 please
Solution: label 1

Exercise: Entry Cc1ccccc1CN1C(=O)C(=O)c2cccc(F)c21 please
Solution: label 0

Exercise: Entry COc1ccc(CN2C(=O)C(=O)c3cc(C)ccc32)cc1 please
Solution: label 0

Exercise: Entry COc1ccc(CN2C(=O)C(=O)c3cc(OC(F)(F)F)ccc32)cc1 please
Solution: label 2

Exercise: Entry O=C1C(=O)N(Cc2ccc(F)cc2F)c2c(F)cccc21 please
Solution: label 2

Exercise: Entry Cc1ccc2c(c1)C(=O)C(=O)N2Cc1ccc(Br)cc1F please
Solution: label 0

Exercise: Entry COc1cccc(CN2C(=O)C(=O)c3cc(Cl)ccc32)c1 please
Solution: label 0

Exercise: Entry O=C1C(=O)N(Cc2ccc(OC(F)(F)F)cc2)c2c(F)cccc21 please
Solution: label 2
